# assay remarks: Binding affinity to human FRalpha expressed in Chinese hamster RT16 cells assessed as antiproliferative activity measured as reduction in cell growth after 96 hrs by Cell-Titer Blue assay
readout type: IC50 (nM)

P: Nc1nc2[nH]c(CCCc3csc(C(=O)N[C@@H](CCC(=O)O)C(=O)O)c3F)cc2c(=O)[nH]1
Q: Nc1nc2[nH]c(CCCCc3ccc(C(=O)N[C@@H](CCC(=O)O)C(=O)O)cc3F)cc2c(=O)[nH]1
Between P and Q , which one has the lower reported IC50 value? Respond using the label that marks the chosen record.
P
(P: 0.14 nM, Q: 1.4 nM)

* * *

# assay remarks: Binding affinity to human PCFT4 expressed in human HeLa R1-11 cells assessed as antiproliferative activity measured as reduction in cell growth after 96 hrs by Cell-Titer Blue assay
readout type: IC50 (nM)

Nc1nc2[nH]c(CCCc3ccc(C(=O)N[C@@H](CCC(=O)O)C(=O)O)c(F)c3)cc2c(=O)[nH]1 5.5
Nc1nc2[nH]c(CCCCc3csc(C(=O)N[C@@H](CCC(=O)O)C(=O)O)c3)cc2c(=O)[nH]1 73
Nc1nc2[nH]c(CCCc3ccc(C(=O)N[C@@H](CCC(=O)O)C(=O)O)cc3)cc2c(=O)[nH]1 9.7

I: Nc1nc2[nH]c(CCCCc3csc(C(=O)N[C@@H](CCC(=O)O)C(=O)O)c3F)cc2c(=O)[nH]1
II: Nc1nc2[nH]c(CCCCc3ccc(C(=O)N[C@@H](CCC(=O)O)C(=O)O)nc3)cc2c(=O)[nH]1
Hi there! Just curious which has the higher IC50 between I and II . Record your answer as the label of the chosen record.
II
